- Tested on: EKVX NSCLC
- test.summary: NCI tumour cell line growth inhibition, 48 h
Where a SMILES comes first, the peptide text is derived from it. [ ]: non-standard residue; d: D form. Phe(ol) = N[C@H](CO)Cc1ccccc1; Aib = CC(C)(N)C(=O)O
Provide the recorded GI50 for the entries that follow.

# count of solved cases: 3
molecule="CC(=O)NC(C)(C)C(=O)N1CCC[C@H]1C(=O)NC(C)(C)C(=O)N[C@@H](C)C(=O)NC(C)(C)C(=O)NC(C)(C)C(=O)N[C@@H](CCC(N)=O)C(=O)NC(C)(C)C(=O)N[C@H](C(=O)NC(C)(C)C(=O)NCC(=O)N[C@@H](CC(C)C)C(=O)NC(C)(C)C(=O)N1CCC[C@H]1C(=O)N[C@H](C(=O)NC(C)(C)C(=O)NC(C)(C)C(=O)N[C@@H](CCC(N)=O)C(=O)N[C@@H](CCC(N)=O)C(=O)N[C@H](CO)Cc1ccccc1)C(C)C)C(C)C (Ac-[Aib]P[Aib]A[Aib][Aib]Q[Aib]V[Aib]GL[Aib]PV[Aib][Aib]QQ[Phe(ol)])" assayed_target="EKVX NSCLC" observed="2.51 µM"
molecule="CC(Nc1c(C#N)cnc2ccc(-c3cncc(O)c3)cc12)c1ccccc1 (centres undefined)" assayed_target="EKVX NSCLC" observed="2.07 µM"
molecule=C#CCn1cccc1CNc1ccc(OC)cc1 assayed_target="EKVX NSCLC" observed="25.5 µM"

Please find the next molecule below.
Recorded GI50 of C#Cc1nc(C2=C(C)/C(=N/OCc3ccccc3)CC2)cs1 , please.
> 100 µM
